Catalogue of compounds with associated IC50
tested system: hACSL5 (Homo sapiens (Human))
Sequence (Q9ULC5 33-683): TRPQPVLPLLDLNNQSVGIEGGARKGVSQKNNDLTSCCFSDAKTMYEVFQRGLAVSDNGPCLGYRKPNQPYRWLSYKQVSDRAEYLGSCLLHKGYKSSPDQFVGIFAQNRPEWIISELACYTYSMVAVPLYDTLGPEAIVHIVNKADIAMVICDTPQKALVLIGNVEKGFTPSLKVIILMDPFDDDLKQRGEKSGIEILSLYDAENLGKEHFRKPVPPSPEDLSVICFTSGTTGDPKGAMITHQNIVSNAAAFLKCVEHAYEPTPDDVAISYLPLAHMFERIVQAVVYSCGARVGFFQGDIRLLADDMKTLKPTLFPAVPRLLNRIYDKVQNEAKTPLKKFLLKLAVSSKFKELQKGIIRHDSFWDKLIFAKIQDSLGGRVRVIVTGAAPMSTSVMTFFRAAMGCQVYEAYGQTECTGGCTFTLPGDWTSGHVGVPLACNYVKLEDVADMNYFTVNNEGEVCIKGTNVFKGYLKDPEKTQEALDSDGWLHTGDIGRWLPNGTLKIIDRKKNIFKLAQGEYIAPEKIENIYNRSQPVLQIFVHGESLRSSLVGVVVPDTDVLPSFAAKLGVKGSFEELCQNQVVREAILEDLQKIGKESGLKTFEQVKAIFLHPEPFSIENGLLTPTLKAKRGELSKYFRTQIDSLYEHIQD
assay overview: Human ACSL5 coupled enzyme Amplex Red assay
Assay type: biochemical
measurement conditions: read-out: hACSL5 IC50

compound	IC50
C[C@@H](Oc1ccc(C(=O)NS(=O)(=O)c2ccc(OCCN(C)C)cc2)c(F)c1F)c1ccc(Oc2ccccn2)cn1	< 100 nM
CC[C@@H](Oc1ccc(C(=O)NS(=O)(=O)N2CCC(OC3CCN(C)CC3)CC2)c(F)c1F)c1ccc(OCCOC)cn1	> 500 nM
CC[C@@H](Oc1ccc(C(=O)NS(=O)(=O)c2ccc(OC3CCN(CC(C)(C)O)CC3)cc2)c(F)c1F)c1ccc(OCC2CC2)cn1	< 100 nM
CC[C@@H](Oc1ccc(C(=O)NS(=O)(=O)N2CCN(CC)CC2)c(F)c1F)c1ccc(Oc2ccccn2)cn1	< 100 nM
CC[C@@H](Oc1ccc(C(=O)NS(=O)(=O)c2ccc(OC3CCN(CCO)CC3)cc2)c(F)c1F)c1ccc(OCC2CC2)cn1	< 100 nM
CC[C@@H](Oc1ccc(C(=O)NS(=O)(=O)N2CCN(C)CC2)c(F)c1F)c1ccc(OC2CC(OC)C2)cn1 (stereo partly shown)	100 to 500 nM
CCCCCOc1cccc(C(C)Oc2ccc(C(=O)NS(=O)(=O)c3ccc(CN)cc3)cc2C(F)(F)F)c1 (stereo not shown)	100 to 500 nM
CC(Oc1ccc(C(=O)NS(=O)(=O)CCN)c(Cl)c1Cl)c1cccc(Oc2ccccc2)c1 (racemic)	> 500 nM
CC[C@@H](Oc1ccc(C(=O)NS(=O)(=O)N2CCN(CCCF)CC2)c(F)c1F)c1ccc(OCC2CC2)cn1	< 100 nM
CC[C@@H](Oc1ccc(C(=O)NS(=O)(=O)c2ccc(OC3CCN(C(C)C)CC3)nc2)c(F)c1F)c1ccc(OCC2CC2)cn1	< 100 nM
CC[C@@H](Oc1ccc(C(=O)NS(=O)(=O)N2CCN(CC)CC2)cc1C(F)(F)F)c1ccc(OCC2CC2)cn1	< 100 nM
CC[C@@H](Oc1ccc(C(=O)NS(=O)(=O)N2CCC(OC3CCN(C)CC3)CC2)cc1C(F)(F)F)c1ccc(OC2CC(OC)C2)cn1 (stereo partly shown)	< 100 nM
CCOc1ccc(C(C)Oc2ccc(C(=O)NS(=O)(=O)N3CCN(C)CC3)c(F)c2F)nc1 (stereo not shown)	> 500 nM
